- subject-of-test: T1, recombinant memapsin 2 (human, UniProt P56817 14-454, limits assumed)
- T1 construct: also called M2; beta-secretase
- assay-remarks: Ki as stated in the crystallisation example; assay not described there
Ends that are not written are not given here.
experimental-readout: pKi
Just the number, please; pKi means minus log10 of the concentration in mol/L.

# get_value(readout='pKi', item= EVNLAAEF (also: Leu4-Ala5 peptide bond replaced by hydroxyethylene isostere -CH(OH)-CH2-, Synthetic substrate analogue based on the beta-secretase site of Swedish mutant APP) [OM99-2] ) 8.00
